Origin of values: patent US20260078130A1

Target: human enzyme NAMPT (full length) (Homo sapiens, UniProt P43490)
Construct: human enzyme NAMPT (full length)
Sequence (P43490 whole entry): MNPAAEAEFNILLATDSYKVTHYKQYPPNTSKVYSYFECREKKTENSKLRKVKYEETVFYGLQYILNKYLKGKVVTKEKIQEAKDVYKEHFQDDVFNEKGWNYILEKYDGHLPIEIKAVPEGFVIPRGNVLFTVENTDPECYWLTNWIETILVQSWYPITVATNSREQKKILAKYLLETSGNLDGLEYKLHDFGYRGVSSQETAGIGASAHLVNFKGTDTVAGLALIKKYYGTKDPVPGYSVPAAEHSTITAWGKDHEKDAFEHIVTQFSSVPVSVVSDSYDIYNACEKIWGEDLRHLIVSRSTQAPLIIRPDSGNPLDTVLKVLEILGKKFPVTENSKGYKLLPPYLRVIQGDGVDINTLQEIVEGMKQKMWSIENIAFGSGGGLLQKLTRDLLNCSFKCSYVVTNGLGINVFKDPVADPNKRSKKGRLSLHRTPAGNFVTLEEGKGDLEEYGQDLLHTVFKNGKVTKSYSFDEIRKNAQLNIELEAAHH
Experiment: NMN fluorescence biochemical assay (stimulation of NMN synthesis by NAMPT)
Conditions: fold change of maximal activation compared to DMSO
readout label: Enzymatic Emax

| compound | target under test | experimental result |
| --- | --- | --- |
| O=C1c2ccc(N3CCOCC3)cc2C(Cc2ccccc2)N1Cc1ccc2[nH]c(=O)oc2c1 (stereo not shown) [Compound 97] | human enzyme NAMPT (full length) (Homo sapiens, UniProt P43490) | A (A>3) |
| C[C@H]1c2ccccc2C(=O)N1Cc1ccc2[nH]c(=O)oc2c1 [Compound 56] | human enzyme NAMPT (full length) (Homo sapiens, UniProt P43490) | A (A>3) |
| O=C1c2ccccc2C(Cc2nc(Br)sc2Cl)N1Cc1ccc2[nH]nnc2c1 (stereo not shown) [Compound 448] | human enzyme NAMPT (full length) (Homo sapiens, UniProt P43490) | A (A>3) |
| CC1c2cc(CN(C)C)ccc2C(=O)N1Cc1ccc2[nH]c(=O)oc2c1 (single isomer, unassigned) [Compound 273] | human enzyme NAMPT (full length) (Homo sapiens, UniProt P43490) | B (3≥B>2) |
| CC1c2c(Br)cccc2C(=O)N1Cc1ccc2[nH]c(=O)oc2c1 (stereo not shown) [Compound 247] | human enzyme NAMPT (full length) (Homo sapiens, UniProt P43490) | B (3≥B>2) |
| CC1c2cc(Cl)ccc2C(=O)N1Cc1ccc2[nH]c(=O)oc2c1 (stereo not shown) [Compound 265] | human enzyme NAMPT (full length) (Homo sapiens, UniProt P43490) | A (A>3) |

---

Test system: endogenous NAMPT in U2OS cells
Assay: Cellular NAD+ modulation assay (NAD/NADH-Glo, U2OS cells)
Type: cell-based
Conditions: Homo sapiens, 24 hours incubation, cellular NAD+
readout label: EC50

| compound | target under test | readout label | experimental result |
| --- | --- | --- | --- |
| COc1ccc(CN2C(=O)c3ncsc3C2Cc2c(Cl)cnn2C)cc1 (stereo not shown) | endogenous NAMPT in U2OS cells | EC50 | 500 to 5000 nM |
| Cc1nn(C)c(C#N)c1CC1c2ccccc2C(=O)N1CC1CC2(CNC(=O)O2)C1 (stereo not shown) | endogenous NAMPT in U2OS cells | EC50 | < 500 nM |
| Cn1ncc(Cl)c1CC1c2ccccc2C(=O)N1Cc1ccc(O)nc1 (stereo not shown) | endogenous NAMPT in U2OS cells | EC50 | 500 to 5000 nM |
| Cn1ncc(Cl)c1CC1c2ccccc2C(C)(C)N1C/C=C/c1c[nH]nn1 (stereo not shown) | endogenous NAMPT in U2OS cells | EC50 | < 500 nM |
| Cn1ncc(Cl)c1CC1c2cc(C3CC3)ccc2C(=O)N1Cc1ccc2[nH]nnc2c1 (stereo not shown) | endogenous NAMPT in U2OS cells | EC50 | < 500 nM |
| O=C1NCC2(CC(CN3C(=O)c4ccccc4C3Cc3c(Cl)nc4ccccn34)C2)O1 (stereo not shown) | endogenous NAMPT in U2OS cells | EC50 | < 500 nM |
| Cc1nnn2cc(CN3C(=O)c4ccccc4C3Cc3c(Cl)cnn3C)ccc12 (stereo not shown) | endogenous NAMPT in U2OS cells | EC50 | 500 to 5000 nM |
| Cc1ccnc(C#N)c1CC1c2cc(C#N)ccc2C(=O)N1Cc1ccc2[nH]nnc2c1 (stereo not shown) | endogenous NAMPT in U2OS cells | EC50 | 500 to 5000 nM |
| CN1CC(c2nn(C)c(CC3c4ccccc4C(=O)N3CC3CC4(CNC(=O)O4)C3)c2Cl)C1 (stereo not shown) | endogenous NAMPT in U2OS cells | EC50 | 500 to 5000 nM |
| Cn1ncc(Cl)c1CC1c2ccccc2C(=O)N1Cc1cc(=O)[nH]o1 (stereo not shown) | endogenous NAMPT in U2OS cells | EC50 | 500 to 5000 nM |
| O=C1NCC2(CC(CN3C(=O)c4ccccc4C3Cc3nnn(C4CC4)c3Cl)C2)O1 (stereo not shown) | endogenous NAMPT in U2OS cells | EC50 | < 500 nM |
| Cc1ccnc(C#N)c1CC1c2cc(C3CC3)ccc2C(=O)N1Cc1ccc2[nH]nnc2c1 (stereo not shown) | endogenous NAMPT in U2OS cells | EC50 | < 500 nM |
| Cn1ncc(Cl)c1CC1c2ccccc2CCN1CC1CC2(CNC(=O)O2)C1 (stereo not shown) | endogenous NAMPT in U2OS cells | EC50 | 500 to 5000 nM |

---

Molecular target: human enzyme NAMPT (full length) (Homo sapiens)
Construct: human enzyme NAMPT (full length)
Experiment: NMN fluorescence biochemical assay (stimulation of NMN synthesis by NAMPT)
Conditions: NMN synthesis by purified human NAMPT (100 nM); concentration giving half-maximal activation; read-out: Enzymatic EC50
readout label: EC50

| compound | readout label | experimental result |
| --- | --- | --- |
| O=C1c2ccccc2C(CCc2ccccc2)N1Cc1ccc2[nH]c(=O)oc2c1 (stereo not drawn) | EC50 | 500 to 5000 nM |
| O=C1c2ccccc2C(Cc2ncccc2Br)N1Cc1ccc2[nH]c(=O)oc2n1 (stereo not drawn) | EC50 | 500 to 5000 nM |
| Cc1cccnc1CC1c2ccccc2C(=O)N1Cc1ccc2[nH]c(=O)oc2c1 (stereo not drawn) | EC50 | < 500 nM |
| O=C1c2ccccc2C(Cc2cc(F)ccn2)N1Cc1ccc2[nH]c(=O)oc2c1 (stereo not drawn) | EC50 | 500 to 5000 nM |
| N#Cc1cccc(F)c1C[C@H]1c2ccccc2C(=O)N1Cc1ccc2[nH]c(=O)oc2c1 | EC50 | < 500 nM |
| O=C1c2ccccc2C(CC2CCCCC2)N1Cc1ccc2[nH]c(=O)oc2c1 (stereo not drawn) | EC50 | 500 to 5000 nM |
| O=C1c2c(Br)cccc2CN1Cc1ccc(O)cc1 | EC50 | 500 to 5000 nM |
| N#Cc1nccc(Cl)c1CC1c2cc(C3COC3)ccc2C(=O)N1Cc1ccc2[nH]c(=O)oc2c1 (stereo not drawn) | EC50 | < 500 nM |
| Cc1c(C#N)cccc1CC1c2ccccc2C(=O)N1Cc1ccc2[nH]c(=O)oc2c1 (stereo not drawn) | EC50 | < 500 nM |
| Cn1ncc(Cl)c1CC1c2cccc(F)c2C(=O)N1CC1CC2(CNC(=O)O2)C1 (stereo not drawn) | EC50 | < 500 nM |
| Cc1ccnc(C#N)c1CC1c2ccccc2C(=O)N1Cc1ccc2[nH]nnc2c1 (stereo not drawn) | EC50 | < 500 nM |
| CC(c1ccc(O)cc1)N1Cc2ccccc2C1=O (stereo not drawn) | EC50 | ≥ 5000 nM |
| CCc1cccnc1CC1c2ccccc2C(=O)N1Cc1ccc2[nH]c(=O)oc2c1 (stereo not drawn) | EC50 | 500 to 5000 nM |
| C#Cc1cccnc1CC1c2ccccc2C(=O)N1Cc1ccc2[nH]c(=O)oc2c1 (stereo not drawn) | EC50 | 500 to 5000 nM |
| C[C@@H]1c2ccccc2C(=O)N1Cc1ccc2[nH]c(=O)oc2c1 | EC50 | ≥ 5000 nM |
| O=C1c2ccccc2C(Cc2ccccn2)N1Cc1ccc2[nH]c(=O)oc2c1 (stereo not drawn) | EC50 | 500 to 5000 nM |
| Cc1ccnc(CC2c3ccccc3C(=O)N2Cc2ccc3[nH]c(=O)oc3c2)c1 (stereo not drawn) | EC50 | ≥ 5000 nM |
| COc1nn(C)c(CC2c3ccccc3C(=O)N2Cc2ccc3[nH]nnc3c2)c1Cl (stereo not drawn) | EC50 | < 500 nM |
| Cc1ccc2c(c1)C(=O)N(Cc1ccc(O)cc1)C2 | EC50 | ≥ 5000 nM |
| O=C1c2ccc(Br)cc2CN1Cc1ccc(O)cc1 | EC50 | 500 to 5000 nM |
| Cn1c2ccccc2c(=O)n1Cc1ccc(O)cc1 | EC50 | ≥ 5000 nM |
| O=C1c2ccccc2CCN1Cc1ccc(O)cc1 | EC50 | 500 to 5000 nM |
| O=C1c2ccccc2C(Cc2ccccc2C(F)(F)F)N1Cc1ccc2[nH]c(=O)oc2c1 (stereo not drawn) | EC50 | < 500 nM |
| Cn1ncc(C#N)c1CC1c2ccccc2C(=O)N1Cc1ccc2[nH]nnc2c1 (stereo not drawn) | EC50 | < 500 nM |
| Cn1cccc(CC2c3ccccc3C(=O)N2Cc2ccc3[nH]c(=O)oc3c2)c1=O (stereo not drawn) | EC50 | ≥ 5000 nM |
| O=C1c2ccccc2C(Cc2ncccc2Br)N1Cc1cc[nH]c(=O)c1 (stereo not drawn) | EC50 | ≥ 5000 nM |
| CC1c2c(Br)cccc2C(=O)N1Cc1ccc2[nH]c(=O)oc2c1 (stereo not drawn) | EC50 | ≥ 5000 nM |
| Cc1ccc(CC2c3ccccc3C(=O)N2Cc2ccc3[nH]c(=O)oc3c2)nc1 (stereo not drawn) | EC50 | 500 to 5000 nM |
| N#Cc1nccc(Br)c1CC1c2ccccc2C(=O)N1Cc1ccc2[nH]nnc2c1 (stereo not drawn) | EC50 | < 500 nM |
| O=C1c2ccc(N3CCCC3)cc2C(=O)N1Cc1ccc(O)cc1 | EC50 | 500 to 5000 nM |
